# Tested on: Escherichia coli TOP10
# Assay: shrunken log2 fold change of peptide-encoding DNA abundance (4.5 h post-induction vs induction); higher = less antimicrobial activity (less host growth inhibition)
# Condition Set: time post-induction: 4.5 h; library: site-saturation at positions 5, 18, 19, 20
Quantity Kind: shrunken log2 fold change
Enter a number only.

query: Which shrunken log2 fold change value is on record for RRIRLRPPRLPRPRPRPTFIPRP ?
result: -0.528

query: Same again, this time with RRIRFRPPRLPRPRPRPKLIPRP
result: -0.565

query: Same again, this time with RRIRGRPPRLPRPRPRPIFLPRP
result: 0.0935

query: Same again, this time with RRIRRRPPRLPRPRPRPQPAPRP
result: 0.387

query: Same again, this time with RRIRIRPPRLPRPRPRPLEMPRP
result: -0.373

query: Same again, this time with RRIRWRPPRLPRPRPRPAAIPRP
result: 0.302

query: Same again, this time with RRIRARPPRLPRPRPRPCREPRP
result: 0.0197

query: Same again, this time with RRIRRRPPRLPRPRPRPRWSPRP
result: 0.498

query: Same again, this time with RRIRSRPPRLPRPRPRPSMHPRP
result: 0.402

query: Same again, this time with RRIRNRPPRLPRPRPRPQTLPRP
result: -0.513

query: Same again, this time with RRIRDRPPRLPRPRPRPALAPRP
result: 1.32

query: Same again, this time with RRIRGRPPRLPRPRPRPPHFPRP
result: 0.67

query: Same again, this time with RRIRCRPPRLPRPRPRPTIRPRP
result: -0.312

query: Same again, this time with RRIRARPPRLPRPRPRPVAIPRP
result: 0.111

query: Same again, this time with RRIRDRPPRLPRPRPRPDPDPRP
result: 0.671

---

# Tested on: Escherichia coli TOP10
# Assay: shrunken log2 fold change of peptide-encoding DNA abundance (4.5 h post-induction vs induction); higher = less antimicrobial activity (less host growth inhibition)
# Condition Set: time post-induction: 4.5 h; library: site-saturation at positions 5, 18, 19, 20
Quantity Kind: shrunken log2 fold change

RRIRVRPPRLPRPRPRPKRNPRP ... 0.166

query: Which shrunken log2 fold change value is on record for RRIRYRPPRLPRPRPRPVDHPRP ?
result: -0.328

query: Same again, this time with RRIRDRPPRLPRPRPRPEHDPRP
result: -0.0084

query: Same again, this time with RRIRRRPPRLPRPRPRPAQRPRP
result: 0.414

---

# Tested on: Escherichia coli TOP10
# Assay: shrunken log2 fold change of peptide-encoding DNA abundance (4.5 h post-induction vs induction); higher = less antimicrobial activity (less host growth inhibition)
# Condition Set: time post-induction: 4.5 h; library: site-saturation at positions 5, 18, 19, 20
Given measured shrunken log2 fold change, output t if it is greater than or equal to 0.2 and f if not.

RRIRARPPRLPRPRPRPNACPRP ... f
RRIRARPPRLPRPRPRPPWVPRP ... t
RRIRFRPPRLPRPRPRPSRGPRP ... t

query: Given the entry RRIRFRPPRLPRPRPRPMYHPRP , answer whether its shrunken log2 fold change meets or surpasses 0.2.
result: f

query: Same again, this time with RRIRMRPPRLPRPRPRPNDPPRP
result: f

query: Same again, this time with RRIRARPPRLPRPRPRPMIWPRP
result: t

query: Same again, this time with RRIRRRPPRLPRPRPRPNEQPRP
result: t

query: Same again, this time with RRIRPRPPRLPRPRPRPGFQPRP
result: t

---

# Tested on: Escherichia coli TOP10
# Assay: shrunken log2 fold change of peptide-encoding DNA abundance (4.5 h post-induction vs induction); higher = less antimicrobial activity (less host growth inhibition)
# Condition Set: time post-induction: 4.5 h; library: site-saturation at positions 5, 18, 19, 20
Quantity Kind: shrunken log2 fold change
Enter a number only.

RRIRHRPPRLPRPRPRPSMQPRP ... -0.124
RRIRDRPPRLPRPRPRPFSQPRP ... -0.172
RRIRLRPPRLPRPRPRPEKIPRP ... -0.223
RRIRDRPPRLPRPRPRPGPLPRP ... 0.0434

query: Write down the reported shrunken log2 fold change of RRIRTRPPRLPRPRPRPTWGPRP , test system: Escherichia coli TOP10.
result: 0.31

query: Same again, this time with RRIRGRPPRLPRPRPRPPLKPRP
result: 1.03

query: Same again, this time with RRIRYRPPRLPRPRPRPYAAPRP
result: -0.546

---

# Tested on: Escherichia coli TOP10
# Assay: shrunken log2 fold change of peptide-encoding DNA abundance (4.5 h post-induction vs induction); higher = less antimicrobial activity (less host growth inhibition)
# Condition Set: time post-induction: 4.5 h; library: site-saturation at positions 5, 18, 19, 20
Quantity Kind: shrunken log2 fold change
Enter a number only.

Some sequences with known shrunken log2 fold change results, for comparison:
RRIRDRPPRLPRPRPRPDEDPRP ... 1.46
RRIRFRPPRLPRPRPRPVRYPRP ... -0.0423

query: Which shrunken log2 fold change value is on record for RRIRTRPPRLPRPRPRPRDIPRP ?
result: -0.0222

query: Same again, this time with RRIRMRPPRLPRPRPRPRYWPRP
result: -0.14

query: Same again, this time with RRIRVRPPRLPRPRPRPLVHPRP
result: -0.145

query: Same again, this time with RRIRWRPPRLPRPRPRPSYRPRP
result: -0.895

query: Same again, this time with RRIRVRPPRLPRPRPRPNEWPRP
result: 0.0106

query: Same again, this time with RRIRNRPPRLPRPRPRPLGGPRP
result: 0.105

query: Same again, this time with RRIRARPPRLPRPRPRPMYDPRP
result: 0.15

---

# Test system: Escherichia coli TOP10
# Assay: shrunken log2 fold change of peptide-encoding DNA abundance (4.5 h post-induction vs induction); higher = less antimicrobial activity (less host growth inhibition)
# Condition Set: time post-induction: 4.5 h; library: site-saturation at positions 5, 18, 19, 20
sequences and their reported shrunken log2 fold change
Enter a number only.

Some sequences with known shrunken log2 fold change results, for comparison:
RRIRFRPPRLPRPRPRPGIIPRP ... -0.139
RRIRFRPPRLPRPRPRPWNTPRP ... -1.19
RRIRVRPPRLPRPRPRPMTHPRP ... -0.352
RRIRRRPPRLPRPRPRPEFRPRP ... 0.179
RRIRTRPPRLPRPRPRPDGVPRP ... -0.0136

query: Which shrunken log2 fold change value is on record for RRIRERPPRLPRPRPRPNYYPRP ?
result: -0.893

query: Same again, this time with RRIRERPPRLPRPRPRPRPVPRP
result: 0.114

query: Same again, this time with RRIRMRPPRLPRPRPRPKVLPRP
result: 0.0109

---

# Test system: Escherichia coli TOP10
# Assay: shrunken log2 fold change of peptide-encoding DNA abundance (4.5 h post-induction vs induction); higher = less antimicrobial activity (less host growth inhibition)
# Condition Set: time post-induction: 4.5 h; library: site-saturation at positions 5, 18, 19, 20
Given measured shrunken log2 fold change, output y if it is greater than or equal to 0.1 and n if not.

Answered cases to consult:
RRIRGRPPRLPRPRPRPLSDPRP ... y
RRIRRRPPRLPRPRPRPLQLPRP ... n
RRIRYRPPRLPRPRPRPNGCPRP ... n

query: Given the entry RRIRRRPPRLPRPRPRPADVPRP , answer whether its shrunken log2 fold change meets or surpasses 0.1.
result: y

query: Same again, this time with RRIRERPPRLPRPRPRPSFHPRP
result: n

query: Same again, this time with RRIRDRPPRLPRPRPRPMYKPRP
result: n

query: Same again, this time with RRIRSRPPRLPRPRPRPVFYPRP
result: n

query: Same again, this time with RRIRSRPPRLPRPRPRPKAHPRP
result: y

---

# System: Escherichia coli TOP10
# Assay: shrunken log2 fold change of peptide-encoding DNA abundance (4.5 h post-induction vs induction); higher = less antimicrobial activity (less host growth inhibition)
# Condition Set: time post-induction: 4.5 h; library: site-saturation at positions 5, 18, 19, 20
Quantity Kind: shrunken log2 fold change
Enter a number only.

Some sequences with known shrunken log2 fold change results, for comparison:
RRIRTRPPRLPRPRPRPQVPPRP ... 0.101
RRIRHRPPRLPRPRPRPLCVPRP ... 2.97
RRIRMRPPRLPRPRPRPDDGPRP ... 0.038

query: Which shrunken log2 fold change value is on record for RRIRTRPPRLPRPRPRPGNIPRP ?
result: -0.0496

query: Same again, this time with RRIRTRPPRLPRPRPRPLIKPRP
result: -1.06

---

# Test system: Escherichia coli TOP10;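 note: peptides expressed intracellularly from a pBAD plasmid library in pooled LB shake-flask culture, induced with 0.3% L-arabinose, DNA abundance read by NGS, three biological replicates, DESeq2 with apeglm shrinkage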
# Assay: shrunken log2 fold change of peptide-encoding DNA abundance (4.5 h post-induction vs induction); higher = less antimicrobial activity (less host growth inhibition)
# Condition Set: time post-induction: 4.5 h; library: site-saturation at positions 5, 18, 19, 20
Given measured shrunken log2 fold change, output yes if it is greater than or equal to 0.1 and no if not.

Answered cases to consult:
RRIRDRPPRLPRPRPRPDNHPRP ... no
RRIRLRPPRLPRPRPRPKVRPRP ... yes
RRIRERPPRLPRPRPRPYFAPRP ... no
RRIRGRPPRLPRPRPRPCQKPRP ... no
RRIRARPPRLPRPRPRPNADPRP ... yes
RRIRARPPRLPRPRPRPKDRPRP ... yes
RRIRLRPPRLPRPRPRPFFHPRP ... no
RRIRYRPPRLPRPRPRPGTWPRP ... yes
RRIRPRPPRLPRPRPRPFHLPRP ... no
RRIRSRPPRLPRPRPRPWWRPRP ... no

query: Given the entry RRIRDRPPRLPRPRPRPGTMPRP , answer whether its shrunken log2 fold change meets or surpasses 0.1.
result: no

query: Same again, this time with RRIRMRPPRLPRPRPRPGCNPRP
result: no

query: Same again, this time with RRIRSRPPRLPRPRPRPAIFPRP
result: no
